Recorded values, source patent US20210388087A1.

- target of assay: T1, Human CD137 ECD (human)
- T1 construct: entry includes C-terminal His-tag and biotin acceptor peptide; also called human CD137 extracellular domain; 4-1BB
- T1 sequence (chain, as listed by the source limits assumed): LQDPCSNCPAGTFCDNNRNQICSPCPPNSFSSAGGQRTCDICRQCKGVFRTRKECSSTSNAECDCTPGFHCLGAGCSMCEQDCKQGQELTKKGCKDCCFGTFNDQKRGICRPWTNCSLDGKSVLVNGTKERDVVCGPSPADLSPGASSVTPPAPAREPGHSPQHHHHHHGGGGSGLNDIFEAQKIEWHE
- test description: Biacore SPR, vs parent H183/L072
Recorded fold change of affinity values for a group of binders are listed next.
Entry rule: numbers only, all in fold.

Solved cases below.
H183/L072 VL R54P (antibody, name in Kabat numbering, V domains shown, Dual-Ig) VH: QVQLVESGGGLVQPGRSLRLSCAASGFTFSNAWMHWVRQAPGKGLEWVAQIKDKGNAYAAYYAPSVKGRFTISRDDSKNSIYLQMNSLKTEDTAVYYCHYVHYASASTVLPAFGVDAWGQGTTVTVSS VL: DIVMTQSPLSLPVTPGEPASISCQASQELVHMNRNTYLHWYQQKPGQAPRLLIYKVSNPFPGVPDRFSGSGSGTDFTLKISRVEAEDVGVYYCAQGTSVPFTFGQGTKLEIK : 0.9
H183/L072 VL T92G (antibody, name in Kabat numbering, V domains shown, Dual-Ig) VH: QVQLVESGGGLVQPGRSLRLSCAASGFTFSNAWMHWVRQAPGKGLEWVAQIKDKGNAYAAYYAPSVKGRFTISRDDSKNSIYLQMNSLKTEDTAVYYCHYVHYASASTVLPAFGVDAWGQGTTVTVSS VL: DIVMTQSPLSLPVTPGEPASISCQASQELVHMNRNTYLHWYQQKPGQAPRLLIYKVSNRFPGVPDRFSGSGSGTDFTLKISRVEAEDVGVYYCAQGGSVPFTFGQGTKLEIK : 0.4

Kindly review the next binder as well.
What value of fold change of affinity has been reported for the following binder? H183/L072 VL R29Y (antibody, name in Kabat numbering, V domains shown, Dual-Ig) VH: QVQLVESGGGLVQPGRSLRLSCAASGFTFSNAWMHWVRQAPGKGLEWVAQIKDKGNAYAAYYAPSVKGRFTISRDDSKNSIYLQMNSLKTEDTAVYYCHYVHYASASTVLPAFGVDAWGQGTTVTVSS VL: DIVMTQSPLSLPVTPGEPASISCQASQELVHMNYNTYLHWYQQKPGQAPRLLIYKVSNRFPGVPDRFSGSGSGTDFTLKISRVEAEDVGVYYCAQGTSVPFTFGQGTKLEIK
0.6
